Assay Target: EPHB2 (UniProt P29323)
Sequence (P29323 whole entry, looked up): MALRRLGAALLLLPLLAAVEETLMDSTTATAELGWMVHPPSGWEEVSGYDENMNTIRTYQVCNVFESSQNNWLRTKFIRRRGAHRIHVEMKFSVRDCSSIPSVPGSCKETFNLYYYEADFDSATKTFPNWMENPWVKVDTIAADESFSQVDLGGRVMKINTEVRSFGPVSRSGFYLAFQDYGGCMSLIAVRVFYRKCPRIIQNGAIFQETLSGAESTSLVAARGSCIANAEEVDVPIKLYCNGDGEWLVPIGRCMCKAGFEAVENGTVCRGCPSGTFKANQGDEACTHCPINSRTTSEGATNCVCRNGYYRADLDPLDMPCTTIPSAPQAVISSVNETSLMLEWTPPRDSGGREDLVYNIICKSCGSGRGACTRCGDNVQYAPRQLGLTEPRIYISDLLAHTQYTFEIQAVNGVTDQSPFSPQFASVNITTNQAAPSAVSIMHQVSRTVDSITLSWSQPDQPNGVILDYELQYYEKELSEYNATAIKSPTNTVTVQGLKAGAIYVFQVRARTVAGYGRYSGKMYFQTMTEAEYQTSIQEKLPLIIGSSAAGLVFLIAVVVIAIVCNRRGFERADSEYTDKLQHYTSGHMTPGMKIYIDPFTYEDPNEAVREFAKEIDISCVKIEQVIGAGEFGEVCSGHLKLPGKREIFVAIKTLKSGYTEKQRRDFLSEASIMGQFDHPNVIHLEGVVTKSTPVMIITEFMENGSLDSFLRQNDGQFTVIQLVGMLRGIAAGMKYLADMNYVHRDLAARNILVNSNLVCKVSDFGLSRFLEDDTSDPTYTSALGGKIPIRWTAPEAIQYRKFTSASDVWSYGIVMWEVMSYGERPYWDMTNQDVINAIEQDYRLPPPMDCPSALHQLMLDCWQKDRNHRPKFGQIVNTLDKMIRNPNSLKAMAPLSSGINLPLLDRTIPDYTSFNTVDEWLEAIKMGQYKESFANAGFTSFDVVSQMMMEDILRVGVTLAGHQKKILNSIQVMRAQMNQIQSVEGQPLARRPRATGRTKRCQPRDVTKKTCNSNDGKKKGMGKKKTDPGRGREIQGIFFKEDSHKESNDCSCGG
Experiment Notes: phosphorylation enrichment, bacterial display (enrichment ratio); higher = better substrate or ligand; peptides without Tyr show the background;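 further: 11-residue human phosphosite peptides and single-mutation variants displayed on the E. coli surface, counted by deep sequencing, each peptide's frequency after selection divided by its frequency in the unselected input library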;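 further: frequency after pTyr selection over input frequency; kinase dosed for 20-30% of maximal phosphorylation in three min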
Hi, to clarify the labels: YES covers phosphorylation enrichment from 0.4 upward, NO covers anything below 0.4.

Consider the worked cases shown below.
VFPATYHPDHW [EFCAB12_Y544_YF]
NO
YGGLRYGYGGL [KRTAP20-2_Y13_V17G]
YES
LYIDSYEKDVA [PGM1_Y521]
YES

Continue with the next sequence.
Q. Is phosphorylation enrichment at least 0.4? Consider YGGRDYSLDEF [MYOF_Y1705]
A. YES

* * *

Kindly supply the reported phosphorylation enrichment values for the records listed here.
Assay Target: Fyn (UniProt P06241)
Sequence (P06241 whole entry, looked up): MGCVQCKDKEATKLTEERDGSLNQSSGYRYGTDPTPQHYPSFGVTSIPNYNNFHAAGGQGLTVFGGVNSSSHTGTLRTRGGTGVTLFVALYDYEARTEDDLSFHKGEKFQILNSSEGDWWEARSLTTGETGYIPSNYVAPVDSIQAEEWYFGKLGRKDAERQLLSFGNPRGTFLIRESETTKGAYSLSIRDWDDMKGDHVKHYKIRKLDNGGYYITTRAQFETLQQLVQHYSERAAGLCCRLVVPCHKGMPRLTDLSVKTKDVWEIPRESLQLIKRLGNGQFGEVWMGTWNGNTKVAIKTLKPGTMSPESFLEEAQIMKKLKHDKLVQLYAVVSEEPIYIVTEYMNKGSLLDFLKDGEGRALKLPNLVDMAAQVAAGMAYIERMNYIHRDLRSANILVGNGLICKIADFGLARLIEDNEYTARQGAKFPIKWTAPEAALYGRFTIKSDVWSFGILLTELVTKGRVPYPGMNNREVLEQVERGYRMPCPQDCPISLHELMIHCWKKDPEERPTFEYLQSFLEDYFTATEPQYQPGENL
Experiment Notes: phosphorylation enrichment, bacterial display (enrichment ratio); higher = better substrate or ligand; peptides without Tyr show the background
Numbers only.

Solved entries (count: 8):
ESDYTYSSSYE [SRPK2_Y427]
1.11
QGIIIYKAAFF [SLC25A4_Y187_R188K_YF]
0.569
AIIGIYNLRDD [CDH23_Y2949_I2950N]
6.82
QQLQGYVPSNF [FRK_Y99_I100V_YF]
0.479
FGISGYVVDSV [MAP2K3_Y214_L215V]
0.449
ASNNPYFRDQA [RPGRIP1_Y846]
0.5
YRDMDYRSYPH [RBM10_Y41_R46H]
0.412
GIVEDYRPPLY [ACVRL1_Y421_F425L]
0.455

Report phosphorylation enrichment for every entry below.
1. VHNLDYFKETT [FGFR3_Y647_K650E_YF]
2. LNWIFYKDQTG [RS1_Y166_YF]
3. QKNVSYVSTVS [TASOR_Y1043]
4. RAEAQYLLVSN [LRIG1_Y1054]
5. QFQEKYKQVEQ [HCN4_Y531_YF]
6. VDTRAYLTSAT [MT-CO1_Y304_F305L]
7. VPANRYDLLRL [FARSB_Y72_C76R]

A.
[0.437, 0.48, 0.532, 0.466, 0.564, 0.436, 0.39]

Can you give me phosphorylation enrichment for all of these, one by one?
1. GADDSYFTARS [ZAP70_Y492_YF]
2. FHKALYTVRTF [PDE6C_Y266_S270T_YF]
3. TDHLQYFDSNK [ARAP1_Y359_R358Q]
4. KDHLDYKYQPR [SOX9_Y172_P170L]
5. VLTSKYRGGGG [HBA1_Y141]
6. KGSEGYLAAIF [NF1_Y2503_T2507I_YF]
7. QLQVFYATRDQ [MIPEP_Y579_L582R]

A.
[0.457, 0.581, 0.79, 0.441, 0.366, 0.421, 0.881]

Please go through the list and note phosphorylation enrichment for each sequence.
1. TTKGSYSLYVR [HCK_Y180_S183Y]
2. FLENFYDLKKD [MMP3_Y42_YF]
3. RRGTRYMFSRP [RPL21_Y13]

A.
0.462
2.57
0.829

The following sequences each have a reported value; give each one's phosphorylation enrichment.
1. KEKLCYVALDF [ACTA1_Y220]
2. RLPNGYGLAFR [DLK1_Y262_S260N_YF]
3. VGGRIYIDDGL [PKLR_Y218]
4. KILGRYYETSS [PAX2_Y72_G76S]

A.
1: 1.03; 2: 0.649; 3: 0.459; 4: 0.424
